assayRemarks: Solubility, Japanese Pharmacopoeia dissolution test in JP2 pH 6.8
Format: physicochemical
experimentalConditions: JP2, pH 6.8, 60 minutes, 10 mg in 500 mL, 37° C.
Entries and their Solubility
Could you give me the number in %? Just the number is fine.

// below: answered compounds
>>> print(df.to_string())
                                   compound  measured
0  Cc1cc(CO)nc2cc3c(cc12)OC(C)(C)[C@H](O)[C@H]3NCCc1ccccc1 [B-form crystal]        27
1  Cc1cc(CO)nc2cc3c(cc12)OC(C)(C)[C@H](O)[C@H]3NCCc1ccccc1 [F-form crystal]        30
2  Cc1cc(CO)nc2cc3c(cc12)OC(C)(C)[C@H](O)[C@H]3NCCc1ccccc1 [A-form crystal]        36

// next item, Solubility requested
Inquiry: # get_value(readout='Solubility', item= Cc1cc(CO)nc2cc3c(cc12)OC(C)(C)[C@H](O)[C@H]3NCCc1ccccc1 [E-form crystal] )
Reply text: 23

The origin of these recorded values is patent US9242992B2.
